- assay_target: Xanthine dehydrogenase/oxidase (Bos taurus)
- measurement_notes: Non-competitive inhibition of bovine milk xanthine oxidase using xanthine as substrate by Lineweaver-Burk plot analysis
pKi: −log10 of the molar value.
The label depends only on pKi: yes if it is at least 7, no if it is smaller.

Check if pKi >= 7 (inclusive). Item: Oc1cc(O)n2ncc(-c3ccccc3)c2n1
yes

Check if pKi >= 7 (inclusive). Item: Oc1cc(O)n2ncc(-c3cccc4ccccc34)c2n1
yes

Check if pKi >= 7 (inclusive). Item: Oc1cc(O)n2nccc2n1
no

Check if pKi >= 7 (inclusive). Item: Oc1cc(O)n2ncc(Cl)c2n1
no

Check if pKi >= 7 (inclusive). Item: Oc1cc(O)n2ncc(-c3cccnc3)c2n1
yes

Next, consider the following molecule.
Check if pKi >= 7 (inclusive). Item: Oc1cc(O)n2ncc(Br)c2n1
no

* * *

- assay_target: Xanthine dehydrogenase/oxidase (Bos taurus)
- measurement_notes: Non-competitive inhibition of bovine milk xanthine oxidase using hypoxanthine as substrate by Lineweaver-Burk plot analysis
parameter: pKi
Remember the convention: pKi equals -log10 of concentration in molar.

Some molecules with known pKi results, for comparison:
Query Oc1cc(O)n2ncc(Cl)c2n1 yields pKi of 5.74

Query Oc1cc(O)n2ncc(-c3cccnc3)c2n1 yields pKi of 7.51

Query Oc1cc(O)n2nccc2n1 yields pKi of 5.38

Query Oc1cc(O)n2ncc(-c3ccccc3)c2n1 yields pKi of 7.22

Query Oc1cc(O)n2ncc(-c3cccc4ccccc34)c2n1 yields pKi of 7.80

Others:
Query Oc1cc(O)n2ncc(Br)c2n1 yields pKi of 5.92

* * *

- assay_target: Xanthine dehydrogenase/oxidase (Bos taurus, UniProt P80457)
- Sequence (P80457 whole entry): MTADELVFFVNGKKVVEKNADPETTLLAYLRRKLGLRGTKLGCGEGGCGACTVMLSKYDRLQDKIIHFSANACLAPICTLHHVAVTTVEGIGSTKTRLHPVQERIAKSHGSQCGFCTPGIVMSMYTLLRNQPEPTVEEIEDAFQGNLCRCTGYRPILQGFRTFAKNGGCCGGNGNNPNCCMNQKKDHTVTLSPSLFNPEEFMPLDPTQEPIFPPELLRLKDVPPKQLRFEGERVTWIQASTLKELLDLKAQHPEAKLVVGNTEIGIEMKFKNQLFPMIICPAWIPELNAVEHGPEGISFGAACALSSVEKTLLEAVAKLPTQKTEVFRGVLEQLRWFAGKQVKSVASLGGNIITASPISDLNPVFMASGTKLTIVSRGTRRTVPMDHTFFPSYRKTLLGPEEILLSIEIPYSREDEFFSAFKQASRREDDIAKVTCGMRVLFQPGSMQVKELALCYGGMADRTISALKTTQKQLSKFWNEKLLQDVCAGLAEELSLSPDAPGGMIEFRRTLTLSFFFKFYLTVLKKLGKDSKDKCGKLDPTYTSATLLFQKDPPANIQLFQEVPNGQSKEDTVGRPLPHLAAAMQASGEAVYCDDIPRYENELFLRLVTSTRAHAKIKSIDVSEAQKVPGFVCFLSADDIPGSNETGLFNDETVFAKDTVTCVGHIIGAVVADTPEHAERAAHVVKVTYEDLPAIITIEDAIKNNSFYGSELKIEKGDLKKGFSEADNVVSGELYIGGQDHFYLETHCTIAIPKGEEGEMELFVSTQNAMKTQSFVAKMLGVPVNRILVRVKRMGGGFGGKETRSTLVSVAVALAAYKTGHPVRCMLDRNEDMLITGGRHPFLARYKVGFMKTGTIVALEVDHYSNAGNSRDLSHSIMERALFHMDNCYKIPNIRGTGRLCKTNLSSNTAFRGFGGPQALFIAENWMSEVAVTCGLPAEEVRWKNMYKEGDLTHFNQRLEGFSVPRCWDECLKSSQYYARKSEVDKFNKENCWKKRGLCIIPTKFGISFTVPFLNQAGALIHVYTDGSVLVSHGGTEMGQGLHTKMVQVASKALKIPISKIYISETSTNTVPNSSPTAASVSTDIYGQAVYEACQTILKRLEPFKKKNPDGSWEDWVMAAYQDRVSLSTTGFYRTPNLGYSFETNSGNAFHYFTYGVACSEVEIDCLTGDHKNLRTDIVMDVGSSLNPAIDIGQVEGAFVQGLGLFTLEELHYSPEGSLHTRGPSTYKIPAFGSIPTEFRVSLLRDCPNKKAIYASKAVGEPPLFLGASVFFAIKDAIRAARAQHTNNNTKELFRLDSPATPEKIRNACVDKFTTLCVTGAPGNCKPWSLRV
- measurement_notes: Inhibition of bovine milk xanthine oxidase using xanthine as substrate at 10 times I50 preincubated for 1 hr at 4 degC measured after 10 fold dilution relative to control
- applied_conditions: cattle
The label depends only on inhibition (INH): MET if it is at least 50%, NOT MET if it is smaller.

Below, 3 molecules whose answers are already recorded.
Check if inhibition (INH) >= 50% (inclusive). Item: Oc1cc(O)n2ncc(-c3ccccc3)c2n1
NOT MET

Check if inhibition (INH) >= 50% (inclusive). Item: Cc1ccc(-c2cnn3c(O)cc(O)nc23)cc1
MET

Check if inhibition (INH) >= 50% (inclusive). Item: Oc1cc(O)n2ncc(-c3cccc4ccccc34)c2n1
NOT MET

Others:
Check if inhibition (INH) >= 50% (inclusive). Item: Oc1cc(O)n2ncc(Cl)c2n1
NOT MET

Check if inhibition (INH) >= 50% (inclusive). Item: Oc1cc(O)n2nccc2n1
NOT MET

* * *

Collected pKi values appear next to each entry.
- assay_target: Xanthine dehydrogenase/oxidase (Bos taurus)
- measurement_notes: Mixed-type inhibition of bovine milk xanthine oxidase using hypoxanthine as substrate by Lineweaver-Burk plot analysis
Remember the convention: pKi equals -log10 of concentration in molar.

Query O=[N+]([O-])c1cnn2c(O)cc(O)nc12 yields pKi of 4.51

Query Oc1cc(O)n2ncc(-c3ccc(Br)cc3)c2n1 yields pKi of 7.64

Query Oc1cc(O)n2ncc(-c3ccc4c(c3)OCO4)c2n1 yields pKi of 7.74

* * *

- assay_target: Xanthine dehydrogenase/oxidase (Bos taurus, UniProt P80457)
- measurement_notes: Inhibition of bovine milk xanthine oxidase using xanthine as substrate at 10 times I50 preincubated for 1 hr at 4 degC measured after 10 fold dilution relative to control
- applied_conditions: cattle
parameter: inhibition (INH) (%)
Only the number, expressed in %, is required.

Some molecules with known inhibition (INH) results, for comparison:
Fill in: Xanthine dehydrogenase/oxidase (Bos taurus, UniProt P80457) inhibition (INH) for Oc1cc(O)n2ncc(Br)c2n1 = 50

Fill in: Xanthine dehydrogenase/oxidase (Bos taurus, UniProt P80457) inhibition (INH) for Cc1cccc(-c2cnn3c(O)cc(O)nc23)c1 = 50

Fill in: Xanthine dehydrogenase/oxidase (Bos taurus, UniProt P80457) inhibition (INH) for Oc1cc(O)n2ncc(-c3ccc4c(c3)OCO4)c2n1 = 49

Fill in: Xanthine dehydrogenase/oxidase (Bos taurus, UniProt P80457) inhibition (INH) for O=[N+]([O-])c1cnn2c(O)cc(O)nc12 = 51

Fill in: Xanthine dehydrogenase/oxidase (Bos taurus, UniProt P80457) inhibition (INH) for Oc1cc(O)n2ncc(-c3cccnc3)c2n1 = 50

Fill in: Xanthine dehydrogenase/oxidase (Bos taurus, UniProt P80457) inhibition (INH) for Oc1cc(O)n2ncc(-c3ccc(Cl)cc3)c2n1 = 53

Others:
Fill in: Xanthine dehydrogenase/oxidase (Bos taurus, UniProt P80457) inhibition (INH) for Oc1ncnc2[nH]ncc12 [ALLOPURINOL] = 100

Fill in: Xanthine dehydrogenase/oxidase (Bos taurus, UniProt P80457) inhibition (INH) for Oc1cc(O)n2ncc(-c3ccc(Br)cc3)c2n1 = 52

Fill in: Xanthine dehydrogenase/oxidase (Bos taurus, UniProt P80457) inhibition (INH) for CC(=O)Nc1ccc(-c2cnn3c(O)cc(O)nc23)cc1 = 47
